Target: T1, Human GPR7 (human, UniProt P48145 1-328)
T1 construct: Full-length receptor expressed in CHO dhfr- cells; also called Human GPR7 receptor; GPR7 receptor
T1 sequence: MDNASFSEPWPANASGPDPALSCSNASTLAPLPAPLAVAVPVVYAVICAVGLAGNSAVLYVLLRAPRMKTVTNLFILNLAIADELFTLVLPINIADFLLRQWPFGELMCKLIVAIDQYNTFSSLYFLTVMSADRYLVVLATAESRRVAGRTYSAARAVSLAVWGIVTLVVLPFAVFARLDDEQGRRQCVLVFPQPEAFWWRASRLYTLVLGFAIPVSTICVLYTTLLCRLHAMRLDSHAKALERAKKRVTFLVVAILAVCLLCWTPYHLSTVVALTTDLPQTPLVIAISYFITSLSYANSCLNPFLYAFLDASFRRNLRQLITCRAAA
Assay: competition with [Phe2, 125I-Tyr10]-Human GPR8 ligand (1-20), membrane fraction of GPR7 expressing CHO cells, 15 µg/ml

Binder	IC50
WYKHVASPRYHTVGRAAGLLMGL (also called hGPR8L(1-23); Human GPR8 ligand (1-23)) [human homologue of GPR8 ligand peptide consisting of 23 residues]	0.13 nM
